Measured Cmax, listed per entry for reference.
test: Pharmacokinetics after intra-tracheal dry powder dosing in the pig; assay type: in vivo; settings: pig, plasma, inhaled or intranasal, 1 mg, Pig 1, intra-tracheal dry powder 1 mg
# value in ng/mL; strip the unit string

CCC(=O)O[C@]1(C(=O)SCF)[C@H](C)C[C@H]2[C@@H]3C[C@H](F)C4=CC(=O)C=C[C@]4(C)[C@@]3(F)[C@@H](O)C[C@@]21C [Fluticasone propionate, reference compound] ... 0.277

Next molecule, please.
Form field Cmax, entry C[C@@H]1C[C@H]2[C@@H]3C[C@H](F)C4=CC(=O)C=C[C@]4(C)[C@@]3(F)[C@@H](O)C[C@]2(C)[C@@]1(OC(=O)c1ccco1)C(=O)SCF [Compound of Formula (I)] : 0.117

====

test: Solubility in water with surfactants and co-solvating agents; type: physicochemical; conditions: water, aqueous with cosolvent or surfactant or cyclodextrin, in water, Triton X-305 5% w/w; read-out: Solubility
measured parameter: solubility (µg/mL)
# value in µg/mL; strip the unit string

Form field solubility, entry C[C@@H]1C[C@H]2[C@@H]3C[C@H](F)C4=CC(=O)C=C[C@]4(C)[C@@]3(F)[C@@H](O)C[C@]2(C)[C@@]1(OC(=O)c1ccco1)C(=O)SCF [Compound of Formula (I)] : 204

====

test: Solubility in water with surfactants and co-solvating agents; type: physicochemical; settings: water, aqueous with cosolvent or surfactant or cyclodextrin, in water, Triton X-100 5% w/w and PEG200 10% w/w; read-out: Solubility
measured parameter: solubility (µg/mL)
# value in µg/mL; strip the unit string

Form field solubility, entry "C[C@@H]1C[C@H]2[C@@H]3C[C@H](F)C4=CC(=O)C=C[C@]4(C)[C@@]3(F)[C@@H](O)C[C@]2(C)[C@@]1(OC(=O)c1ccco1)C(=O)SCF" : 840

====

test: Solubility in water with surfactants and co-solvating agents; format: physicochemical; conditions: water, aqueous with cosolvent or surfactant or cyclodextrin, in water, Sodium chenodesoxycholate 5% w/w; read-out: Solubility
measured parameter: solubility (µg/mL)
# value in µg/mL; strip the unit string

Form field solubility, entry CCC(=O)O[C@]1(C(=O)SCF)[C@H](C)C[C@H]2[C@@H]3C[C@H](F)C4=CC(=O)C=C[C@]4(C)[C@@]3(F)[C@@H](O)C[C@@]21C [Fluticasone propionate, reference compound] : 5.9

====

assay: Solubility in water with surfactants and co-solvating agents; assay type: physicochemical; settings: water, aqueous with cosolvent or surfactant or cyclodextrin, in water, Tyloxapol 5% w/w, no co-solvating agent; read-out: Solubility
measured parameter: solubility
Please give the number followed by its unit.

Form field solubility, entry "C[C@@H]1C[C@H]2[C@@H]3C[C@H](F)C4=CC(=O)C=C[C@]4(C)[C@@]3(F)[C@@H](O)C[C@]2(C)[C@@]1(OC(=O)c1ccco1)C(=O)SCF" : 344 µg/mL

====

experiment: Solubility in water with surfactants and co-solvating agents; assay type: physicochemical; settings: 5% Tyloxapol, aqueous with cosolvent or surfactant or cyclodextrin, 5% Tyloxapol, process performed at 60-70° C.; read-out: solubility
measured parameter: solubility (µg/mL)
# value in µg/mL; strip the unit string

CCC(=O)O[C@]1(C(=O)SCF)[C@H](C)C[C@H]2[C@@H]3C[C@H](F)C4=CC(=O)C=C[C@]4(C)[C@@]3(F)[C@@H](O)C[C@@]21C [Fluticasone propionate, reference compound] ... 133

Form field solubility, entry C[C@@H]1C[C@H]2[C@@H]3C[C@H](F)C4=CC(=O)C=C[C@]4(C)[C@@]3(F)[C@@H](O)C[C@]2(C)[C@@]1(OC(=O)c1ccco1)C(=O)SCF [Compound of Formula (I)] : 344
